- Test system: Escherichia coli TOP10;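 further: peptides expressed intracellularly from a pBAD plasmid library in pooled LB shake-flask culture, induced with 0.3% L-arabinose, DNA abundance read by NGS, three biological replicates, DESeq2 with apeglm shrinkage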
- assayMethodText: shrunken log2 fold change of peptide-encoding DNA abundance (4.5 h post-induction vs induction); higher = less antimicrobial activity (less host growth inhibition)
- conditionParameters: time post-induction: 4.5 h; library: site-saturation at positions 5, 18, 19, 20
Param threshold (0.02) applies to shrunken log2 fold change; output rule met when value >= threshold, rule not met when value < threshold.

These solved cases illustrate the format of a correct answer.
RRIRGRPPRLPRPRPRPVHNPRP | rule met
RRIRLRPPRLPRPRPRPEKSPRP | rule met
RRIRVRPPRLPRPRPRPQVYPRP | rule not met

Request: Could you please find out whether `RRIRKRPPRLPRPRPRPYQQPRP` has shrunken log2 fold change that meets 0.02 or exceeds it?
Result: rule not met

Request: Given `RRIRCRPPRLPRPRPRPTRNPRP` , state whether its shrunken log2 fold change is at least 0.02.
Result: rule met
